test: Solubility of Nimorazole in water; assay type: physicochemical

# Compound, solubility (µg/mL)
rows = [
    ("O=[N+]([O-])c1cncn1CCN1CCOCC1 [Nimorazole]", 4910),
]

Taken from patent US8703188B1.
